# TESTED TARGET: T1, Clostridium difficile toxin A (TcdA) (Clostridium difficile strain 10463, UniProt P16154 1-2710)
# T1 construct: range 1-2710
# T1 sequence (P16154 whole entry): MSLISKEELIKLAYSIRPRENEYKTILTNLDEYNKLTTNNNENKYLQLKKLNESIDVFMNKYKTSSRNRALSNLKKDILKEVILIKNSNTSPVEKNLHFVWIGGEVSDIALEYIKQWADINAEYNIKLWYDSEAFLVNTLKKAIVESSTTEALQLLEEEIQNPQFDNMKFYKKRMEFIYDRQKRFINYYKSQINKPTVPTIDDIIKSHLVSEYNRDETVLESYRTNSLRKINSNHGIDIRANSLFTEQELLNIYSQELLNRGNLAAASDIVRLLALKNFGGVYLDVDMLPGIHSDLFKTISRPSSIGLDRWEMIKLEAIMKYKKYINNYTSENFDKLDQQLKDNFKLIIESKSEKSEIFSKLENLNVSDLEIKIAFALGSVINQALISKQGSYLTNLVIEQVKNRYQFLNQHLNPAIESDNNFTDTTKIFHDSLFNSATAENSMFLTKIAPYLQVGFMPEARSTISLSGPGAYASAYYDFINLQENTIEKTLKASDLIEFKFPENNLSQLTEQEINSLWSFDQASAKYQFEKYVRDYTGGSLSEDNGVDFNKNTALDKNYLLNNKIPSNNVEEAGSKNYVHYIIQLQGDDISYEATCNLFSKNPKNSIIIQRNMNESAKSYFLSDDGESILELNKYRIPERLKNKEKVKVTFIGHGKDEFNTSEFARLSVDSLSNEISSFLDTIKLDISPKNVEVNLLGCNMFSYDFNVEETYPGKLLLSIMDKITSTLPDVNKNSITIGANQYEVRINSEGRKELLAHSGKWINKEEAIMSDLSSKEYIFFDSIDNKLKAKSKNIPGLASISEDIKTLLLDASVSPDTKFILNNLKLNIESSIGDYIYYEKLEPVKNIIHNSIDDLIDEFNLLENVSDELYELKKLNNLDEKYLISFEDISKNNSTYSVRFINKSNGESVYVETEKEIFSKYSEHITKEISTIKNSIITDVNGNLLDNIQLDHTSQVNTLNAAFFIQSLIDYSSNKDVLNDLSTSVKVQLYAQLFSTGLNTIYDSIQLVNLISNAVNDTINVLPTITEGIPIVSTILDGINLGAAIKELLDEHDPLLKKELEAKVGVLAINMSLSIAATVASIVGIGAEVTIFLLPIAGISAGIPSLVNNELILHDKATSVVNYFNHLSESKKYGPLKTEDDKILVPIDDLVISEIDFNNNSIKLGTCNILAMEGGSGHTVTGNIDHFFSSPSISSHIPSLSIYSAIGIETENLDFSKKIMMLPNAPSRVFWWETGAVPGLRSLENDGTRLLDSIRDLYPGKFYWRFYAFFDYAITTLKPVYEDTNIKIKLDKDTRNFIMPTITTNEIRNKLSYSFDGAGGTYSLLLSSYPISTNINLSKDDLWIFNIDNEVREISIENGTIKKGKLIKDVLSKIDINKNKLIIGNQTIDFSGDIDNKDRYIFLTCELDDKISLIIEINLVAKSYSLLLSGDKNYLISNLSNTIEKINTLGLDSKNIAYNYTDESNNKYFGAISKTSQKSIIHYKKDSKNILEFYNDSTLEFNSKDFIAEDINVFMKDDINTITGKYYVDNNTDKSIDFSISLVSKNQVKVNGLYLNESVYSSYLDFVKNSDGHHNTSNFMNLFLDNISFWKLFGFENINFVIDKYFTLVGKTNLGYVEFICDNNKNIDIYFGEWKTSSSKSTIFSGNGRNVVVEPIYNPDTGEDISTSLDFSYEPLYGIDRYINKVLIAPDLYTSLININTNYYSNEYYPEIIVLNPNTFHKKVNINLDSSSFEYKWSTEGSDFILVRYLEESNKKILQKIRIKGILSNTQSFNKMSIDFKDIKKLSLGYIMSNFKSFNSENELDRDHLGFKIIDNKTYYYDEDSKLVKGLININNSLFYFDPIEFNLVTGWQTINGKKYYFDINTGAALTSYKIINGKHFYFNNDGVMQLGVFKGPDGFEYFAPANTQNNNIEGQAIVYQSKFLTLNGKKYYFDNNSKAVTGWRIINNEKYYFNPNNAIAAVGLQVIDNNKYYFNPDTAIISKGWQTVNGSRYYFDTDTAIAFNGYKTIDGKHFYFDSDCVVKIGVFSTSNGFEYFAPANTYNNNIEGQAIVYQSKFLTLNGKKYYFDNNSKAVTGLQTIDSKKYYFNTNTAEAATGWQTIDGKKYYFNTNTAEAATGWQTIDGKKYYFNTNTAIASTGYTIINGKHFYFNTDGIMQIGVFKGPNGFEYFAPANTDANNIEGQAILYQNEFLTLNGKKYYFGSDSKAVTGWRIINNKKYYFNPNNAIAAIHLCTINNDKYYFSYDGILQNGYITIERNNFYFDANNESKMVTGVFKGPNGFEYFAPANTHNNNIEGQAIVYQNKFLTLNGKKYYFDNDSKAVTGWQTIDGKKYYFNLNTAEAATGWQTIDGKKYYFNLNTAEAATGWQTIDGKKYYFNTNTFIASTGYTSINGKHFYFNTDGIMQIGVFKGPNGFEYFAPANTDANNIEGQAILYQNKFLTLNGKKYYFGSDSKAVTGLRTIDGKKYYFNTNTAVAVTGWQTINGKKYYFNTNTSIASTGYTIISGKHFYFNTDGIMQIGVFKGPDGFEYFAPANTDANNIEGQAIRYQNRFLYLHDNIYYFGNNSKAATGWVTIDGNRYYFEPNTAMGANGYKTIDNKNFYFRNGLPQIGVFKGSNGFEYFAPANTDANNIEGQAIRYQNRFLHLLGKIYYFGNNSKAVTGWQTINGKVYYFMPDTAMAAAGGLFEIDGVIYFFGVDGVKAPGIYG
# EXPERIMENT SUMMARY: SPR, TcdA immobilized; same value as in Table 1
Please go through the items and note down their log10(kon).
Recall that a logarithmic scale is used here: each number is log10 of kon in M⁻¹ s⁻¹.

// query log10(kon) value for entry A24.1 (VHH, also called anti-TcdA VHH A24.1) VHH: QVQLVESGGGLVQAGGSLRLSCAASIRSFSNRNMGWFRQPPGKEREFVAGISWGGGSTRYADSVKGRFTISRDNAKKTVYLQMNSLKPEDTAVYYCAAEFGHNIATSSDEYDYWGQGTQVTVSS
4.78

// query log10(kon) value for entry A19.2 (VHH, also called anti-TcdA VHH A19.2) VHH: QVKLEESGGGLVQPGGSLRLSCAASGRTLSSYIVAWFRQAPGKEREFVAGISRRGGNSAYVESVKGRFTISRDNAKNTVYLQMNSLKPEDTAVYYCAADGSVAGWGRRSVSVSSYDYWGQGTQVTVSS
4.15

// query log10(kon) value for entry A4.2 (VHH, also called anti-TcdA VHH A4.2) VHH: QVKLEESGGGLVQAGGSLRLSCAASGRTFNTLSMGWFRQAPGKEREFVAAVSRSGGSTYYADSVKGRFTISRDNAKNTVYLQMNSLKPEDTAVYYCAAAATKSNTTAYRLSFDYWGQGTQVTVSS
5.83

// query log10(kon) value for entry A20.1 (VHH, also called anti-TcdA VHH A20.1) VHH: QVQLVESGGGLAQAGGSLRLSCAASGRTFSMDPMAWFRQPPGKEREFVAAGSSTGRTTYYADSVKGRFTISRDNAKNTVYLQMNSLKPEDTAVYYCAAAPYGANWYRDEYAYWGQGTQVTVSS
5.91

// query log10(kon) value for entry A5.1 (VHH, also called anti-TcdA VHH A5.1) VHH: QVKLEESGGGLVQAGGSLRLSCAASGRTFSMYRMGWFRQAPGKEREFVGVITRNGSSTYYADSVKGRFTISRDNAKNTVYLQMNSLKPEDTALYYCAATSGSSYLDAAHVYDYWGQGTQVTVSS
6.20
